system: Escherichia coli; experiment: Antibacterial activity against Escherichia coli NCIM 2666 at 100 ug/ml by agar cup plate method; format: functional
Active and inactive are the calls of the source. The calls are words filed in the database; no cut-off is given here.
measureName: inhibition zone (IZ)

Just so you know, measured inhibition zone (IZ) for Cc1cc(=O)oc2cc(N3C(=O)CSC3c3ccccc3O)ccc12 (centres undefined) came out at inactive

Just so you know, measured inhibition zone (IZ) for `Cc1cc(=O)oc2cc(/N=C/c3ccccc3O)ccc12` came out at inactive

Just so you know, measured inhibition zone (IZ) for `Cc1cc(=O)oc2cc(/N=C/c3ccc(O)cc3)ccc12` came out at inactive

Just so you know, measured inhibition zone (IZ) for Cc1cc(=O)oc2cc(N3C(=O)CSC3c3ccc(O)cc3)ccc12 (centres undefined) came out at inactive
